system: MDA-MB-231 cells; experiment: Cytotoxic activity, WST-1 assay, breast cancer MDA-MB-231; assay type: cell-based, human; conditions: HFF-1 vs MDA-MB-231
Threshold 0.8. SI (IC50 HFF-1/IC50 cancer line) MDA-MB-231 below it: Met. SI (IC50 HFF-1/IC50 cancer line) MDA-MB-231 at it or above: Not met.

Consider the worked cases shown below.
INSERT INTO results (compound, assigned_category) VALUES
  ('Cc1ccc2c(n1)C(=O)C(Oc1cccc3ccc(N4CCOCC4)nc13)=C(Cl)C2=O [Compound 12f]', 'Not met'),
  ('O=C1C(Cl)=C(Oc2cccc3ccc(N4CCCC4)nc23)C(=O)c2ncccc21 [Compound 11e]', 'Not met'),
  ('Cc1ccc2cccc(OC3=C(Cl)C(=O)c4ccccc4C3=O)c2n1 [Compound 14b]', 'Met'),
  ('O=C1C(Cl)=C(Oc2cccc3cccnc23)C(=O)c2ccccc21 [Compound 14a]', 'Not met');

Input line: Identify whether the compound Cc1ccc2c(n1)C(=O)C(Oc1cccc3ccc(Cl)nc13)=C(Cl)C2=O [Compound 12d] records SI (IC50 HFF-1/IC50 cancer line) MDA-MB-231 below 0.8.
Output line: Met

Numbers sourced from paper PMC9572083.
